Numbers sourced from patent US20220275350A1.

ASSAYED_SYSTEM: T1, cpHaloΔ9mer
T1 construct: also called cpHalo_9mer; cpHalo156-141
T1 sequence (chain, as listed by the source mutant): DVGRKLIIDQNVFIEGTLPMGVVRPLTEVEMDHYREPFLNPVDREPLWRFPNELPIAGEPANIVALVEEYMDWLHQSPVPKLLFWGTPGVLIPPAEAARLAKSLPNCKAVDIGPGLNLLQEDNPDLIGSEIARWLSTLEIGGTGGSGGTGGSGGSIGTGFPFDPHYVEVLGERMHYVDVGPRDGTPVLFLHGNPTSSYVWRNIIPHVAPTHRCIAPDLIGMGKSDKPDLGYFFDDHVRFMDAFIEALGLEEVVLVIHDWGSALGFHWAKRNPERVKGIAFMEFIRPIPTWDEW
ASSAY_OVERVIEW: ITC; 9mer peptide (~30 mM) titrated into 0.6 mM cpHaloΔ9mer; three independent measurements; one-site model
RECORDED_METRIC: Kd (mM)

1) ARETFQAFR (Free peptide titrated in the ITC assay; also called PEP1) [9mer peptide]    5.3
